# measured target: Cathepsin D (Homo sapiens)
# Sequence (P07339 65-162 limits assumed): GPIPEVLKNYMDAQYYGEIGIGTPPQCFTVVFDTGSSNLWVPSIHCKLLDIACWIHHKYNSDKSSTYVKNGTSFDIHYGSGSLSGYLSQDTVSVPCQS
# Sequence (P07339 169-412 limits assumed): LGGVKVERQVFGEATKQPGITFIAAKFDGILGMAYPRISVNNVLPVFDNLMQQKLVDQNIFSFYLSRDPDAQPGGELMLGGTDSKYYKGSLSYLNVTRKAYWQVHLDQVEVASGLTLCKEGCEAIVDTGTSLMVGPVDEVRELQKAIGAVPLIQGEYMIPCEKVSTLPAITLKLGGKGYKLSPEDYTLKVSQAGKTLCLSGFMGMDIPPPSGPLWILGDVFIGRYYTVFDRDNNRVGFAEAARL
experimental endpoint: pIC50
On this scale, pIC50 is minus log10 of a concentration expressed in M (mol/L).

Example entries and their recorded answers appear below.
CSCC[C@H](NC(=O)[C@@H](NC(=O)OC(C)(C)C)C(C)C)C(=O)N[C@@H](COCc1cc(F)cc(F)c1)[C@@H](O)C[C@@H](C)C(=O)N[C@H](C(=O)NCc1ccccc1)C(C)C ... 9.20
CC(C)[C@H](NC(=O)[C@@H](C)C[C@H](O)[C@H](COc1cc(F)cc(F)c1)NC(=O)c1cc(C(=O)N[C@H](C)c2ccccc2)cc(N(C)S(C)(=O)=O)c1)C(=O)NCc1ccccc1 ... 6.92
CC(C)[C@H](NC(=O)[C@H](C)C[C@H](O)[C@H](COCc1ccccc1)NC(=O)c1cc(C(=O)N[C@H](C)c2ccccc2)cc(N(C)S(C)(=O)=O)c1)C(=O)NCc1ccccc1 ... 7.39

**Query** Give pIC50 for the following compound: CC(C)[C@H](NC(=O)[C@H](C)C[C@H](O)[C@H](COc1cc(F)cc(F)c1)NC(=O)c1cc(C(=O)N[C@H](C)c2ccccc2)cc(N(C)S(C)(=O)=O)c1)C(=O)NCc1ccccc1
**Result** 7.23

**Query** Give pIC50 for the following compound: CC(C)[C@H](NC(=O)[C@H](C)C[C@H](O)[C@H](COCc1cc(F)cc(F)c1)NC(=O)c1cc(C(=O)N[C@H](C)c2ccccc2)cc(N(C)S(C)(=O)=O)c1)C(=O)NCc1ccccc1
**Result** 6.68

Taken from ChEMBL document CHEMBL1154862.
